Test system: Rattus norvegicus
Experiment: Neuroprotective activity in Sprague-Dawley rat assessed as protection against acrylamide-induced decrease of creatine kinase level at 50 mg/kg, ip administered 10 mins before acrylamide challenge for 3 days per week for 3 weeks by spectrofluorometrically (reference value: -73%)
Parameters: scale not given: the % may be the effect or the level left
Conditions: route intraperitoneal
Answer each item with its documented Activity.
One number for each entry, in %.

Completed entries (count: 4):
| Smi | Unit Tag | Activity |
| --- | --- | --- |
| COc1ccc2[nH]cc(CCNC(C)=O)c2c1 | % | 59 |
| COc1ccc2c(c1)c(CCNC(C)=O)cn2CN1CCOCC1 | % | 30 |
| COc1ccc2c(c1)c(CCNC(C)=O)c1sc(-c3c(C(C)=O)nn(-c4ccccc4)c3N)nn12 | % | 6 |
| COc1ccc2c(c1)c(CCNC(C)=O)c1sc(C3=C(c4ccccc4)CC(=N)C(C#N)=C3N)nn12 | % | 18 |

Could you now look at the following compound, please?
// Activity lookup, compound = "COc1ccc2c(c1)c(CCNC(C)=O)cn2-c1c[nH]nc1-c1ccccc1" , result: 6

###

Test system: Rattus norvegicus
Test: Neuroprotective activity in Sprague-Dawley rat assessed as protection against acrylamide-induced increase of LDH level at 50 mg/kg, ip administered 10 mins before acrylamide challenge for 3 days per week for 3 weeks by spectrofluorometrically (reference value: 67%)
Conditions: route intraperitoneal
Measurement Label: Activity (%)
Answers are plain numbers, in %.

Worked set:
| Compound | Study Target | Unit Tag | Activity |
| --- | --- | --- | --- |
| COc1ccc2[nH]cc(CCNC(C)=O)c2c1 [MELATONIN] | Rattus norvegicus | % | -65 |
| COc1ccc2c(c1)c(CCNC(C)=O)c1sc(-c3c(C(C)=O)nn(-c4ccccc4)c3N)nn12 | Rattus norvegicus | % | -45 |
| COc1ccc2c(c1)c(CCNC(C)=O)cn2CN1CCOCC1 | Rattus norvegicus | % | -55 |
| COc1ccc2c(c1)c(CCNC(C)=O)cn2-c1c[nH]nc1-c1ccccc1 | Rattus norvegicus | % | -40 |

Next item in the queue.
Activity recorded for this compound, "COc1ccc2c(c1)c(CCNC(C)=O)c1sc(C3=C(c4ccccc4)CC(=N)C(C#N)=C3N)nn12" , is -47

###

Test system: Rattus norvegicus
Assay: Neuroprotective activity in Sprague-Dawley rat assessed as protection against acrylamide-induced decrease of glutathione peroxidase level at 50 mg/kg, ip administered 10 mins before acrylamide challenge for 3 days per week for 3 weeks by spectrofluorometrically (reference value: -43%)
Set-up: scale not given: the % may be the effect or the level left
Conditions: route intraperitoneal
Measurement Label: Activity (%)
Numbers only, in %.

Field: example entries. Status: answers known.
| Smi | Measurement Label | Reported Result |
| --- | --- | --- |
| COc1ccc2c(c1)c(CCNC(C)=O)c1sc(C3=C(c4ccccc4)CC(=N)C(C#N)=C3N)nn12 | Activity | 8 |
| COc1ccc2[nH]cc(CCNC(C)=O)c2c1 | Activity | 38 |
| COc1ccc2c(c1)c(CCNC(C)=O)c1sc(-c3c(C(C)=O)nn(-c4ccccc4)c3N)nn12 | Activity | 5 |

Please report Activity for every entry that follows.
1. COc1ccc2c(c1)c(CCNC(C)=O)cn2-c1c[nH]nc1-c1ccccc1
2. COc1ccc2c(c1)c(CCNC(C)=O)cn2CN1CCOCC1

A)
[3, 11]
